This collection of values is drawn from patent US20100221502A1.

ASSAY_REMARKS: Evaluation of hue on glossy paper (L*, a*, b*, C* of inkjet recorded image)
Assay type: physicochemical
REPORTED_CONDITIONS: Glossy paper manufactured by SEIKO-EPSON CORPORATION; C*=((a*)^2+(b*)^2)^1/2
RESULT_TYPE: Chroma C*

[
  {
    "COMPOUND": "Cn1c(=O)cc2c3c(c(Nc4cc(Nc5nc(O)nc(Nc6cc(S(=O)(=O)O)ccc6S(=O)(=O)O)n5)ccc4S(=O)(=O)O)ccc31)C(=O)c1ccccc1-2 [Comparative Example 1, reference compound]",
    "OBSERVED_VALUE": 80.4
  },
  {
    "COMPOUND": "O=C(O)c1cc(Nc2nc(O)nc(Nc3cc(Nc4cc(Oc5ccc(-c6ccc(S(=O)(=O)O)cc6)cc5S(=O)(=O)O)c5[nH]c(=O)c(C(=O)c6cccc(S(=O)(=O)O)c6)c6c5c4C(=O)c4ccccc4-6)c(S(=O)(=O)O)cc3S(=O)(=O)O)n2)cc(C(=O)O)c1",
    "OBSERVED_VALUE": 77.6
  },
  {
    "COMPOUND": "O=C(c1cccc(S(=O)(=O)O)c1)c1c2c3c(c(Nc4cc(Nc5nc(O)nc(Nc6ccccc6S(=O)(=O)O)n5)c(S(=O)(=O)O)cc4S(=O)(=O)O)cc(Oc4ccc(-c5ccc(S(=O)(=O)O)cc5)cc4S(=O)(=O)O)c3[nH]c1=O)C(=O)c1ccccc1-2",
    "OBSERVED_VALUE": 82.3
  },
  {
    "COMPOUND": "O=C(O)c1ccccc1Nc1nc(O)nc(Nc2cc(Nc3cc(Oc4ccc(-c5ccc(S(=O)(=O)O)cc5)cc4S(=O)(=O)O)c4[nH]c(=O)c(C(=O)c5cccc(S(=O)(=O)O)c5)c5c4c3C(=O)c3ccccc3-5)c(S(=O)(=O)O)cc2S(=O)(=O)O)n1",
    "OBSERVED_VALUE": 80.5
  }
]
